molecular target: Photoreceptor-specific nuclear receptor (Homo sapiens); experiment: NCOR release from NR2E3 in cells – cell-based, luminescence, CHO-S, Gal4-NCOR/VP16-NR2E3, primary screen (AID 602229); details: CHO-S Gal4-NCOR/VP16-NR2E3 two-hybrid, luciferase; at 3.98 µM;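 further: higher means lower luciferase signal from less NR2E3 corepressor binding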
About 1,300 (0.36%) of roughly 360,000 compounds were called active.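 How the source made its calls: active means inhibition above the mean of all tested compounds plus 3 SD (cut at about 70% in these data); inactive means the rest.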 For the sample, actives were picked, then their nearest neighbours and some compounds at random.
Possible outcomes: Y (active), N (inactive)

{"COMPOUND": "CSCCC(c1nnnn1Cc1ccccc1)N1CCN(C/C=C/c2ccccc2)CC1 (configuration not stated)", "ASSIGNED CATEGORY": "N"}
{"COMPOUND": "O=C(NCc1ccccc1)C(=O)NCC1OCCN1S(=O)(=O)c1ccc(Br)cc1 (configuration not stated)", "ASSIGNED CATEGORY": "N"}
{"COMPOUND": "C[C@@H]1NC(=O)c2cc([N+](=O)[O-])cc(F)c2NCCC[C@@H](C(N)=O)NC(=O)[C@H](CC(N)=O)NC1=O", "ASSIGNED CATEGORY": "N"}
{"COMPOUND": "C=CCC1(CC=C)CCCN1C(=O)c1cc(COc2ccc(-n3cncn3)cc2)on1", "ASSIGNED CATEGORY": "Y"}
{"COMPOUND": "COc1ccccc1CNc1nc(Nc2ccccc2Cl)c2sccc2n1", "ASSIGNED CATEGORY": "N"}
{"COMPOUND": "COc1cccc(C(=O)Nc2c3c(nn2-c2cccc(C)c2C)CS(=O)(=O)C3)c1OC", "ASSIGNED CATEGORY": "N"}
{"COMPOUND": "COc1ccc(CCNC(=O)CSCc2ccc(Br)cc2)cc1OC", "ASSIGNED CATEGORY": "N"}
{"COMPOUND": "COc1ccc(NC(=O)C2=NNC(=O)CC2)cc1S(=O)(=O)N1CCCCC1", "ASSIGNED CATEGORY": "N"}
{"COMPOUND": "Cc1nc(CNS(=O)(=O)c2ccc(Oc3ccccc3)cc2)cs1", "ASSIGNED CATEGORY": "Y"}
{"COMPOUND": "O=C(c1cc(COc2c(F)cccc2F)on1)N1CCSCC1", "ASSIGNED CATEGORY": "N"}
{"COMPOUND": "COc1ccc(NS(=O)(=O)c2ccc(N3CCN(CCO)CC3)c([N+](=O)[O-])c2)cc1", "ASSIGNED CATEGORY": "N"}
{"COMPOUND": "Cc1cc2oc(=O)cc(CN(C)Cc3ccc(OC(F)F)cc3)c2cc1Cl", "ASSIGNED CATEGORY": "N"}
{"COMPOUND": "COc1ccc2nc(-c3ccccn3)ccc2c1", "ASSIGNED CATEGORY": "N"}
{"COMPOUND": "O=C(Nn1cnnc1)c1cc(Cl)ccc1Cl", "ASSIGNED CATEGORY": "N"}
{"COMPOUND": "CCOc1ccc(S(=O)(=O)n2ccnc2)c2ccccc12", "ASSIGNED CATEGORY": "N"}
{"COMPOUND": "COc1cccc(CNc2nc(NCc3ccccc3OC)nc3ccsc23)c1", "ASSIGNED CATEGORY": "N"}
{"COMPOUND": "COc1ccc(CC(=O)Nc2nc(-c3ccc(F)c(F)c3)cs2)cc1OC", "ASSIGNED CATEGORY": "Y"}
{"COMPOUND": "CS(=O)(=O)c1ccc2nnn(OCC(=O)Nc3cccc(C#N)c3)c2c1", "ASSIGNED CATEGORY": "N"}
{"COMPOUND": "CC(C)N=C1CCCC1C(=S)SSC(=S)C1CCCC1=NC(C)C (configuration not stated)", "ASSIGNED CATEGORY": "Y"}
{"COMPOUND": "COCC(=O)N1CCc2ccc(NC(=O)c3ccccc3Cl)cc2C1", "ASSIGNED CATEGORY": "N"}
{"COMPOUND": "CC(C)(C)c1ccc(Oc2ccc(N)cc2)cc1", "ASSIGNED CATEGORY": "N"}
{"COMPOUND": "Cc1csc(OCC(=O)Nc2ccc(C)c(C)c2)n1", "ASSIGNED CATEGORY": "N"}
